Recorded apparent KD of K4 kissing-loop reporter by entry
Test system: K4 kissing-loop RNA reporter;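 further: bound reporter read as fluorescence of individual clusters on recovered sequencing chips by microscopy, with normalized cluster intensities fitted with a binding model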
Assay: apparent KD of K4 kissing-loop reporter; higher = weaker reporter binding
Conditions: Eterna round: R107; input ligand: tryptophan 2.4 mM
Value Kind: apparent KD of K4 kissing-loop reporter (nM)

Sequence Data	Experimental Target	Recorded Value
UGAUAGGACAGAAGGAGCGGAAGCUAGUCAAAGACUAGCAAACGUUAAACAGGAGUGAUGUUCCAGGUAGGUCGCUGUCCUAUCU [ArgBX 23 #SwitchBubble #StaticStem]	K4 kissing-loop RNA reporter	119
UGUGUUUACCUGACUCAGUGAUGUUGAGAAGGAGCGUGCAAAAGCACAGGUAGGUCGCUCAACCUAAAUUCAGGUGAGCACUAAA	K4 kissing-loop RNA reporter	264
CUCACAGUGAUGUUGUGGGCCGAGAGUGAUACCAGCCGUAUUUGUGGCCCUUGGCAGCGCAAAAGCCGAGUGAUGUUCGAAUCGG [Same State Theophylline A GF 24]	K4 kissing-loop RNA reporter	192

###

apparent KD of MS2 coat protein values, listed per item
Tested on: MS2 coat protein
Assay: apparent KD of MS2 coat protein; higher = weaker reporter binding
Conditions: Eterna round: R107; input ligand: arginine 13.2 mM

Sequence Data	apparent KD of MS2 coat protein
UGAUUGAACGGAAGGAGCGUGUAAGAACAAGAACAUGAGGAUCACCCAUGUAUUAAUUUAACACAGGUAGGUCGCCGAGAGAUUG [11.D]	16 nM
GUCCUCAGCCGAAGGAGCGCUAGAAGGUGACAUGAGGAUCACCCAUGUGUGUGAUGUGGCUAGCAGGUAGGUCGCGGAGAGGAUU [Exclusion - Arginine B (Freestyle 17)]	107 nM
AGGUACGGAAUCCUCAUGUAGUCGUACCAACGAGGACCGGUACGGCCGCCACUCGAAUAAACAUGAGGAUCACCCAUGUAAUAAU [T''-M-T'-T-MS2]	17.6 nM
GUCCACAGCCGAAGGAGCGCUAGAAGAUGACAUGAGGAUCACCCAUGUGUGUGGUGUGGCUAGCAGGUAGGUCGCGGAGUGGAUU [Exclusion - Arginine B (Freestyle 15)]	39.7 nM
GCUAGGUCUACGGCCGCCACUAGACGUGGGUAAGACAUGAGGAUCACCCAUGUACUACAGGCGAAUAGGACCGGGUAGACCUAGC [SSTB NP+V+V2 #12 Same Structure]	58.2 nM
UCGGGAACAUGAGGAUCACCCAUGUCAGAAGGAGCGCUGAGAGAAGCAGGUAGGUCGCUGACGCAGGAGCUCUCUUCCUGUACGC [#22 Exclusion - Arginine A]	96.2 nM

###

System: MS2 coat protein
Assay: apparent KD of MS2 coat protein; designed switch direction (-1 OFF switch, 1 ON switch): -1; higher = weaker reporter binding
Details: input ligand: microRNA oligo, concentration not stated
Label 1 (yes) when apparent KD of MS2 coat protein is at or above 20 nM; otherwise label 0 (no).

Sequence Data	Class Name
GUAAAUCAUGUAGGAUAUGCAUAGCAAAGCUAUGCAGAAGGACAUGAGGAUCACCCAUGUCAUUCCGUCUGGAGACAGACGGGA [Mat - Exclusion NG 1 - Mod of JL - D58] (Eterna round: R96, puzzle: Exclusion NG 1)	1 (yes)
GUAAUUAAUGUAGGAUAUGCAAGGCGAACCUAAGCAGAAGGACAUGAGGAUCACCCAUGUAUUGCGGUCUGCGUACAGAUCGCU [salish99_ExNG1_r4_008] (Eterna round: R96, puzzle: Exclusion NG 1)	0 (no)
AGCUGUGGCCGAGGAUAUCUGAAAACUCAAACCGAAAUAUAAUCGGACAUGAGGAUCACCCAUGUAGAGAAGGCGGUCUCAGCA [Eli eng2 - 062] (Eterna round: R96, puzzle: Exclusion NG 2)	1 (yes)
CAAAGUUGGUAAGGAUAUCCCACAUUAUUCUGACCCGUGCAAGCUACAUGAGGAUCACCCAUGUGGGAGAAGGUGCGUUAAAGA [Design 1] (Eterna round: R96, puzzle: Exclusion NG 2)	1 (yes)
ACUUAUCAUGUAGGAUAUGCGUGGCGAAGCUAUGCAGAAGGACAUGAGGAUCACCCAUGUUUUAGCGUCUGCGUACAGAUGCGU [JL ENG1 1.45] (Eterna round: R96, puzzle: Exclusion NG 1)	1 (yes)

###

Test system: MS2 coat protein
Assay: apparent KD of MS2 coat protein; designed switch direction (-1 OFF switch, 1 ON switch): -1; higher = weaker reporter binding
Details: Eterna round: R95; input ligand: FMN 200 uM

Sequence Data	apparent KD of MS2 coat protein, nM
GAUUAGUGAGGAUAUGGUAAAGAUAAGAUGAUGAAAGAACUCCAGAAGGCACAUGAGGAUCACCCAUGUAGUAG [Mat - Exclusion 4 - Mod of JL - D21] (puzzle: Exclusion 4)	17.1
GGGCUUCAAGUGAGGAUAUCUACGCAGUUGAAGCGAGAGAAGGCACAUGAGGAUCACCCAUGUAUAGAAGAAGA [Rausmausis] (puzzle: Brourd's mod of Exclusion 4)	116
GGAGCGAUUCUCUUAGCUGACAUGAGGAUCACCCAUGUAUGCAAGCUCUUAUUUUGCUCGUCUUACCGGGAAUUGCU [Uslainar] (puzzle: Sensor v3, turn-off variant 1)	14.8

###

Test system: MS2 coat protein
Test: apparent KD of MS2 coat protein, switch OFF state (with FMN for OFF switches, without FMN for ON switches); designed switch direction (-1 OFF switch, 1 ON switch): -1; higher = weaker reporter binding
Details: FMN input: 0 or 200 uM; Eterna round: R93 (includes R88 designs)
Parameter: apparent KD of MS2 coat protein. Scope: all listed entries.
Value Kind: apparent KD of MS2 coat protein (µM)

Sequence Data	Value Kind	Recorded Value
AACUGCGCAGGAUAUACAUGAGGAUCACCCAUGUAAAGAAAAGAAAGAUCCGAAGAAAGUAGAAGGGCGUGGAA [Variant 2 of Mod 1 of Ex3 sub 3, by Tesla's Dusciple Round 1]	apparent KD of MS2 coat protein	0.0563
AAGAAGUCAGGAUAUGCCAAAGGUCACGAAAGUGACAAAGGGCAGAAGGGACAUGAGGAUCACCCAUGUAAAGA [Opal 2]	apparent KD of MS2 coat protein	0.0567
AGCUAGUGAGGAUAUACGAACAUGUCAAAAGACGUGAAAAAACAUGAGGAUCACCCAUGUAGAAGGCACUAGCA [Mat - Exclusion 2 - JL-Eli mod - D56]	apparent KD of MS2 coat protein	0.0169
AGGGAGUAAGGAUAUGAGAAAUAAAAAGAAGGAAAAAAAGAUCAGAAGGUACAUGAGGAUCACCCAUGUGGGAA [milkweed 10]	apparent KD of MS2 coat protein	0.0399
AGCUAGUCAGGAUAUACGAACAUGUCAAAAGACGUGAAUAAACAUGAGGAUCACCCAUGUAGAAGGGACUAGCA [Mat - Exclusion 2 - JL-Eli mod - D53]	apparent KD of MS2 coat protein	0.0148
AACUGACAUGAGGAUCACCCAUGUCAGGAUAUGAUUUGACGAAAUAAAAUAAGUCAUAUCAGAAGGGACAUGGG [Design 83: Sub-opt VB]	apparent KD of MS2 coat protein	0.0212
AGCUAGUCAGGAUAUACGAACAUGUCAAAAGACGUGAAGGGACAUGAGGAUCACCCAUGUAGAAGGGACUAGCA [WEB mod]	apparent KD of MS2 coat protein	0.138
AAAAGGUGAGGAUAUACGAAAAAAAAAAAAAAAAAAAAAAAGUAGAAGGCACAUGAGGAUCACCCAUGUAAAAA [LROPPY Exclusion 4 - v01_deltaG=2.54]	apparent KD of MS2 coat protein	0.0413
AAAAAACAUGAGGAUCACCCAUGUGAGGAUAUGACGUAAAUAAAGAAAGAAGAAAUCGUCAGAAGGCACAAAAA [55%, Disencluded 2, 6]	apparent KD of MS2 coat protein	0.041
AAAAAGUUAGGAUAUACAUGAGGAUCACCCAUGUACAUAAAUGGAGAAAAAAACAGUAGUAGAAGGGACAAAAA [EX2 Malc#11]	apparent KD of MS2 coat protein	0.0222
AAAAAACAUGAGGAUCACCCAUGUGAGGAUAUGACGUAAAUAAAGAAAGAAGAAAUCGUCAGAAGGCACACCAA [55%, Disencluded 2, 5]	apparent KD of MS2 coat protein	0.0431
AAGAAGUGAGGAUAUACAUGAGGAUCACCCAUGUAAAAGAAAGAAAAGGGAAAGAAAAGUAGAAGGCACAAGAA [Maatkare Hatshepsut]	apparent KD of MS2 coat protein	0.0583
AAGAAGGGAGGAUAUACAAAAUAAAAGAAAAGAAAGAAAGAACAUGAGGAUCACCCAUGUAGAAGGCUCAAGAA [Mersekhemre Ined]	apparent KD of MS2 coat protein	0.0249

###

Tested on: MS2 coat protein
Test: apparent KD of MS2 coat protein; designed switch direction (-1 OFF switch, 1 ON switch): -1; higher = weaker reporter binding
Details: input ligand: microRNA oligo, concentration not stated
Decision: apparent KD of MS2 coat protein compared against 20 nM; not below it gives yes, below it gives no.

Sequence Data	Class Name
UUAUUAUAUGUAGGAUAUGCGUAUUAUUGUUAUGCAGAAGGACAUGAGGAUCACCCAUGUAUAUUAUUGUUAUAUAUUAUAUAU [Title] (Eterna round: R96, puzzle: Exclusion NG 1)	no
UGCUACAUGAGGAUCACCCAUGUAAUGUGGGAAUCGUUAGGACAGGAUAUGAUUGUAUUGUUUUUUCAGAAGGGUCAUUACUUU [JR_ExcNG3_Sub012] (Eterna round: R96, puzzle: Exclusion NG 3)	yes
AAGAUGCGGGUAGGAUAUGGAGAGAAAGAAAGACCAGAAGGACUGGUCACACAACAUGAGGAUCACCCAUGUGUGUGUUGCGAA [EX ng 1 6] (Eterna round: R96, puzzle: Exclusion NG 1)	no
UCAGACAUGAGGAUCACCCAUGUGUGACCCUCCUGUCUCAGUCAGGAUAUACUUUUUCAAACUUAGUAGAAGGGACAACAAAAC [Oronerused] (Eterna round: R96, puzzle: Exclusion NG 3)	yes
UAUAUAUAGUAAGGAUAUGUAAUUAUCUUAUAAACAGAAGGUACUGACAUGAGGAUCACCCAUGUUUUAGUGUGGGCAUGUAGA [JMF's solution 39] (Eterna round: R96, puzzle: Exclusion NG 1)	yes
UUGGUUGUGGUAGGAUAUCCGUUGGAAACCGUCGGAGAAGGACCACAGUCACUGGGUCCUUGUCUGGUGGACUGGAAUCACCAU [pwkr exNG1 F6.15] (Eterna round: R96, puzzle: Exclusion NG 1)	yes
AAACCUCACAACCGUUAAAACAUGAGGAUCACCCAUGUGCCGUAACGGCGCAUGGUCGAGCUAGGCUCGUCCAUGCA [Zamacelaso] (Eterna round: R96, puzzle: Sensor v2, turn-off variant)	no
UUAAUUAAUUUAUUAGAUCCUCACAUGAGGAUCACCCAUGUGCAGGAUAUCAGCUCGUUUAGAGCUGAGAAGGGCACUAUAAAU [ExNG3/10-B2] (Eterna round: R96, puzzle: Exclusion NG 3)	yes
UUUCAUCAUGUAGGAUAUGUGUGGCGAAGCUAUACAGAAGGACAUGAGGAUCACCCAUGUUCUUGCGUCUGCGUACAGAUGCAA [14th something] (Eterna round: R96, puzzle: Exclusion NG 1)	yes
GCAGAAAGUGUAGGAUAUCUAAUAAAGCGGAAACGCAAGACAUGAGGAUCACCCAUGUGUCCGGAAGAGAAGGGCAAAAGCUGC [EXNG2 V2 c] (Eterna round: R96, puzzle: Exclusion NG 2)	yes
UCGCUCCGUGUAGGAUAUCGCCGUUCUAUUCGGCGAGAAGGACAUGAGGAUCACCCAUGUAUGUUAUUAUCACGUGUGGCGCGC [Design 55] (Eterna round: R96, puzzle: Exclusion NG 1)	no
ACGAUGACCGAAAGAUGUCAAAAGACAUGAGGAUCACCCAUGUAGGAUAUGGCUACGAAAAGUAGUCAGAAGGACAUGUCAUCA [Omei Exc(NG) 3 A] (Eterna round: R96, puzzle: Exclusion NG 3)	no
AGAUGCUCGAGUCGACAUGAGGAUCACCCAUGUACAGUUAGUGAGGAUAUCGGAGACACAUAGUAUGAGAAGGCGCGAACGUGA [Ex NG3 #15] (Eterna round: R96, puzzle: Exclusion NG 3)	yes
AGGUUGGCGUGAGGAUAUUGGAAAGGAAGUGUACAAGAAGGUACGGACCUAAAACAUGAGGAUCACCCAUGUGGUCCUUAUGCC [PowerStrip EXNG 1.26] (Eterna round: R96, puzzle: Exclusion NG 1)	no
CUAAAUCAUGUAGGAUAUGCGUGGCAAAGCUAUGCAGAAGGACAUGAGGAUCACCCAUGUCAUUCCGUCUGCGAACAGACGGGA [Mat - Exclusion NG 1 - Mod of JL - D50] (Eterna round: R96, puzzle: Exclusion NG 1)	no
CUGUUUUCCGCAGGAUAUGCUCCUCCAUUAUUUGCAGAAGGGCGUUGAACAUGAGGAUCACCCAUGUAUGUAAUUGAUUAUUGC [JR_ExcNG1_Sub070] (Eterna round: R96, puzzle: Exclusion NG 1)	yes
AUUGAAUGAAACCUCUAAUACAUGAGGAUCACCCAUGUUAUCGAGGAUAUGCAGAAUAGAUUAGAGCAGAAGGCGAAGUAAUAU [JR_ExcNG3_Sub024] (Eterna round: R96, puzzle: Exclusion NG 3)	no
